The origin of these recorded values is patent US20260327191A1.

Biological target: GSK3A (Homo sapiens)
Sequence (P49840 whole entry): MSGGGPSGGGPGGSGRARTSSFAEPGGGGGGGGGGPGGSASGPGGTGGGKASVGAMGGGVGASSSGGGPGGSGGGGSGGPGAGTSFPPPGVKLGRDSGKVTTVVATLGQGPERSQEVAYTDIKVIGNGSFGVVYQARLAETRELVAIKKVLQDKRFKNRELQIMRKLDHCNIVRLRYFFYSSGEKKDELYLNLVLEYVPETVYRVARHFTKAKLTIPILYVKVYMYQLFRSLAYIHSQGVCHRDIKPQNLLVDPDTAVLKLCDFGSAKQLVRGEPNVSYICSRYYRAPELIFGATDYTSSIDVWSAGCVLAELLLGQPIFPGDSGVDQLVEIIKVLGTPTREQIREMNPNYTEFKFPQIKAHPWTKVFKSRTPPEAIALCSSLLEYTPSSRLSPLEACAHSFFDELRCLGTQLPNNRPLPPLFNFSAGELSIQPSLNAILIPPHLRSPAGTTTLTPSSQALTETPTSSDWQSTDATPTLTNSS
Test: NanoBRET cellular target engagement assay, Nanoluc-GSK3A in HEK293 cells
Details: NanoBRET GSK3α IC50, HEK293 cells, tracer K-8, 2 hours, 37° C
Protocol: In the assay, HEK293 cells stably expressing either Nanoluc-GSK3A or Nanoluc-GSK3B were maintained in culture media and seeded, using a multidrop dispenser, at a density of 5×10^3 cells per well in 384-well white plates with 100 ng/ml doxycycline (Sigma) overnight. Compound was first diluted in DMSO to generate a 9-point serial dilution then diluted to 10× final concentration in Opti-MEM™ (Gibco). […]
pIC50: −log10 of the molar value.
readout.kind: pIC50

A selection of reference data follows.
- CCC[C@@H](N)c1cncc(NC(=O)c2c(N)ncn(-c3c(C)cc(OCC)cc3C)c2=O)c1: 8.18
- Nc1ncn(-c2c(Cl)cncc2Cl)c(=O)c1C(=O)Nc1cncc([C@H]2CCCCN2)c1: 8.62
- COC[C@@H](N)c1cncc(NC(=O)c2c(N)ncn(-c3c(Cl)cc(OC)cc3Cl)c2=O)c1: 8.46
- COc1cc(Cl)c(-n2cnc(N)c(C(=O)Nc3cncc(C4CCC(C)N4)c3)c2=O)c(Cl)c1 (single isomer, unassigned) [Example 79]: 8.62
- CCC[C@@H](N)c1cncc(NC(=O)c2c(N)ncn(-c3c(C)cc(C(F)F)cc3C)c2=O)c1: 8.55

(P) COc1cc(C)c(-n2cnc(N)c(C(=O)Nc3cncc([C@H]4CCCCN4)c3)c2=O)c(C)c1
(Q) Cc1cccc(Cl)c1-n1cnc(N)c(C(=O)Nc2cccc([C@@H]3CCCN3)c2F)c1=O (single isomer, unassigned)
Field: entry with larger pIC50 (options P / Q ). Your answer should be the label attached to the chosen record. P
(P: 8.43, Q: 8.10)
